The values you see were collected from PubChem BioAssay (NCATS).

Assay: AP1 Signaling Pathway (AID 357);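 further: ME-180 reporter cells stimulated with EGF at its EC50 level; on the % scale 0 is the no-effect control and ±100 the full control effect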
Settings: ME-180 (cervical carcinoma) AP-1-bla reporter, EGF-induced, beta-lactamase ratio, 5 h; at 7.69 µM (top of the series) unless noted
Inconclusive results are not listed. Activity calls are given as the source filed them. The call rests on the fitted dose curve; in most records, active means well fitted curve in either direction with a large enough effect (not every such curve was filed as active); inconclusive means small, poorly fitted or top-dose-only effect, or another doubt; inactive means flat fitted curve, though single readings scatter.
MEASUREMENT LABEL: activity change, negative = inhibition

I have this compound here, Cc1c([C@@H](C)[C@H]2NC[C@H](C)C[C@@H]2O)ccc2c1C[C@@H]1[C@H]2CC=C2C[C@@H](O)CC[C@@]21C , and I need its recorded activity change, negative = inhibition. -4.38% (inactive)

Okay, and C[C@]12CC[C@H](O)C[C@@H]1CC[C@H]1[C@H]2CC[C@]2(C)[C@H](C(=O)CO)CC[C@@H]12 ? 0.537% [at 38 µM] (inactive)

Okay, and C[C@]12CC[C@@H]3[C@H](CCC4=CC(=O)CC[C@]43C)[C@]1(O)CC[C@@]2(O)C(=O)CO ? -0.316% (inactive)

Okay, and O=C(O)C(=O)Cc1ccc2c(c1)OCO2 ? 6.13% (inactive)
